I'd appreciate it if you could supply IC50 values for the items below.
# Subject of test: Type IV collagenase (MMP-9) (Homo sapiens, UniProt P14780)
# Construct: purified from conditioned medium
# Sequence (P14780 107-707 limits assumed): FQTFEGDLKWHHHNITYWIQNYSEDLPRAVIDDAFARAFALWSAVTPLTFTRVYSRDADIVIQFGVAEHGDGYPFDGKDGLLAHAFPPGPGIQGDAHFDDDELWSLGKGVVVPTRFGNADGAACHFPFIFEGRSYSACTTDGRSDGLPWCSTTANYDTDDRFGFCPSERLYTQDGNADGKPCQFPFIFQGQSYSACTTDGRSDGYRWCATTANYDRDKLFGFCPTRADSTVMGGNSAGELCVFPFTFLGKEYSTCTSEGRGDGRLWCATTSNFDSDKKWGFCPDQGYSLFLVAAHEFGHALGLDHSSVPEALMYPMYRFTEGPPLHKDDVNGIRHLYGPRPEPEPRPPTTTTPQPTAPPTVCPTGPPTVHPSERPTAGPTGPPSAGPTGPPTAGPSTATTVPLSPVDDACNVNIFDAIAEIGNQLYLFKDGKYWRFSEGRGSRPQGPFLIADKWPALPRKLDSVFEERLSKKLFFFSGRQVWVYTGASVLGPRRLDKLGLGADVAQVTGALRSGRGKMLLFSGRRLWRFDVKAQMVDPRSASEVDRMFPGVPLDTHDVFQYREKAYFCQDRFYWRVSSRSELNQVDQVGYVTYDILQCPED
# Experiment description: Type IV collagenase (MMP-9) inhibition assay, fluorescent substrate kit
# Condition details: activated MMP-9 from HT 1080 cells; type IV collagenase activity kit, fluorescent intensity
One number for each entry, in nM.

Consider the following illustrative entries.
O=C(O)[C@@H](Cc1ccccc1)NS(=O)(=O)c1ccc(-c2nnn(-c3ccccc3)n2)cc1; 210
O=C(NO)[C@@H](Cc1ccccc1)NS(=O)(=O)c1ccc(-c2nnn(-c3ccccc3)n2)cc1; 5.65

Let's switch to this molecule now.
Recorded IC50 (molecule O=C(NO)C(Cc1nc2ccccc2[nH]1)NS(=O)(=O)c1ccc(-c2ccccc2)cc1 (racemic) ): 21.6

Each recorded value in this set is attributed to patent US6919375B1.
